Source: paper PMC11754664

Catalogue of Kd readings, one per entry.
Target: SB10-H19Y (synthetic Sleeping Beauty transposon, H19Y)
Test: fluorescence anisotropy; Full-length MST: 50 mM Tris pH 7.5, 5 mM MgCl2, 300 mM NaCl, 2% glycerol, 50 mM Arg-Glu, 1 mM TCEP, 0.1% Triton X-100, 0.1 mg/ml BSA, 30 nM Cy5-DNA, room temp
Conditions: protein: recombinant; tags: Ni-NTA purified; label: 5' Cy5 on forward strand (MST)
READOUT LABEL: Kd (nM)

                                     binder  data_value
0  DR-core (dsDNA) DNA 1: TCGGAAGTTTACATACAC DNA 2: GTGTATGTAAACTTCCGA        51.3
1  Li (dsDNA) DNA 1: TCCAGTGGGTCAGAAGTTTACATACACTAAGT DNA 2: ACTTAGTGTATGTAAACTTCTGACCCACTGGA        18.2
2  Lo (dsDNA) DNA 1: CAGTTGAAGTCGGAAGTTTACATACACTTAAG DNA 2: CTTAAGTGTATGTAAACTTCCGACTTCAACTG        9.73
